# target: T1, human EphA4 extracellular region-SEAP-His protein (human, UniProt P54764 20-547)
# T1 construct: also called hEphA4-SEAP-His
# T1 sequence (P54764 20-547): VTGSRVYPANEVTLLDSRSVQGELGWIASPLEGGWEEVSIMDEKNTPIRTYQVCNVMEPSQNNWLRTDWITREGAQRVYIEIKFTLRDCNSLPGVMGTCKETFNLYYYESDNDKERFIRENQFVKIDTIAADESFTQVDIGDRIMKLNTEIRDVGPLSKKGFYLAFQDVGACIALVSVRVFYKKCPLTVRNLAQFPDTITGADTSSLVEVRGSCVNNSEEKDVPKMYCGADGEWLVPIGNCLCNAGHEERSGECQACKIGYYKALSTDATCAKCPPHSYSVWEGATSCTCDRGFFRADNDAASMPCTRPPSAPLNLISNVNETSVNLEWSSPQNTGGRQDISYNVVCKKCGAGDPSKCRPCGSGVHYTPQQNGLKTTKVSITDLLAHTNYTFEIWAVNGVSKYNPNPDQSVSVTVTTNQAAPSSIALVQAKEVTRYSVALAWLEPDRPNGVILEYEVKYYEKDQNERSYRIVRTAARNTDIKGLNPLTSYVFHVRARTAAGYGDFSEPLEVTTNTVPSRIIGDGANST
# experiment_description: competition ELISA: human EphA4 extracellular region-SEAP-His captured on the plate, blocked ligand biotinylated human Ephrin B3-Fc chimera (2.3 nM)

| binder | IC50, nM |
| --- | --- |
| KYLPYWPVLSSL (synthetic peptide) [KYL peptide] | 1570 |

From: patent US20190077860A1
